The reported measurements were obtained from patent US11040954B1.

Target: CXCR3 (Homo sapiens)
Construct: host or cells: CHO-K1 (cAMP Hunter CHOK1 CXCR3 Gi cell line)
Experiment: CXCR3 cAMP agonist assay (cAMP Hunter CHOK1 CXCR3 Gi cell line, forskolin-stimulated, HitHunter cAMP detection)
Assay type: cell-based
Conditions: cAMP Hunter CHOK1 CXCR3 Gi cells, 20 μM forskolin, 30 minutes; read-out: Activity (CXCR3 cAMP agonist assay compound EC50)
Answer each item with its documented EC50.

NCC[C@H](NC(=O)[C@@H]1Cc2ccccc2CN1C(=O)CCC(=O)c1ccccc1)C(=O)Nc1cc(Cl)ccc1C(F)(F)F : 50 to 250 nM
Cc1cc(NC(=O)[C@H](CCN)NC(=O)[C@@H]2Cc3ccccc3CN2C(=O)CCC(=O)c2ccccc2)c(I)cc1Cl : < 50 nM

Count: 2. Required value per item: EC50.
1. Cc1cc(NC(=O)[C@H](CCN)NC(=O)[C@@H]2Cc3ccccc3CN2C(=O)CCC(=O)N2CCCC[C@@H]2C)ccc1Cl
2. Cc1cc(NC(=O)[C@H](CCC2CCN(C(=O)OC(C)(C)C)CC2)NC(=O)[C@@H]2Cc3ccccc3CN2C(=O)CCC(=O)c2ccccc2)ccc1Cl

< 50 nM
250 to 500 nM

----------
Assay: Mouse pharmacokinetics after oral gavage, plasma drug concentration by LC-MS/MS (C57BL/6)
Type: in vivo, C57bl/6 mice
Settings: mouse, plasma, C57BL/6, 60 mg/kg, female mice
property_label: Cmax (µM)
Give bare numbers, in µM.

Cc1cc(NC(=O)[C@H](CCN)NC(=O)[C@@H]2Cc3ccccc3CN2C(=O)CCC(=O)c2ccccc2)c(C#N)cc1Cl [Compound 14-18] : 3.2
Cc1cc(NC(=O)[C@H](CC23CC(N)(C2)C3)NC(=O)[C@@H]2Cc3ccccc3CN2C(=O)CCC(=O)c2ccccc2)ccc1Cl [Compound 22-1] : 7.3
CC1(C)CCCCN1C(=O)CCC(=O)N1Cc2cc(F)ccc2C[C@H]1C(=O)N[C@@H](CCN)C(=O)Nc1ccc(Cl)c(Cl)c1F [Compound 15-62] : 0.6
NCC[C@H](NC(=O)[C@@H]1Cc2ccccc2CN1C(=O)CCC(=O)N1CCCC2(CCC2)C1)C(=O)Nc1ccc2c(c1)CCC2 [Compound 10-8] : 1.5
Cc1cc(NC(=O)[C@H](CCN)NC(=O)[C@@H]2Cc3ccccc3CN2C(=O)CCC(=O)c2ccccc2)c(OC(F)(F)F)cc1C [Compound 14-28] : 5.2

Count: 4. Required value per item: Cmax.
1. CN1CCN(C(=O)CCC(=O)N2Cc3ccccc3C[C@H]2C(=O)NC2(C(=O)Nc3ccc(Cl)c(Cl)c3F)CCNCC2)CC1 [Compound 12-138]
2. Cc1cccc(NC(=O)[C@H](CCN)NC(=O)[C@@H]2Cc3ccccc3CN2C(=O)CCC(=O)c2ccccc2)c1C [Compound 2-49]
3. CC1(C)CCCN(C(=O)CCC(=O)N2Cc3ccccc3C[C@H]2C(=O)N[C@@H](CCN)C(=O)Nc2ccc(Cl)c(Cl)c2F)C1 [Compound 15-6]
4. NCC[C@H](NC(=O)[C@@H]1Cc2ccc(F)cc2CN1C(=O)CCC(=O)c1ccccc1)C(=O)Nc1ccc(Cl)c(Cl)c1F [Compound 27-7]

1: 0.5; 2: 7.1; 3: 5.7; 4: 4.3

----------
Target: CXCR3 (Homo sapiens, UniProt P49682)
Construct: host or cells: CHO-K1 (cAMP Hunter CHOK1 CXCR3 Gi cell line)
Sequence (P49682 whole entry): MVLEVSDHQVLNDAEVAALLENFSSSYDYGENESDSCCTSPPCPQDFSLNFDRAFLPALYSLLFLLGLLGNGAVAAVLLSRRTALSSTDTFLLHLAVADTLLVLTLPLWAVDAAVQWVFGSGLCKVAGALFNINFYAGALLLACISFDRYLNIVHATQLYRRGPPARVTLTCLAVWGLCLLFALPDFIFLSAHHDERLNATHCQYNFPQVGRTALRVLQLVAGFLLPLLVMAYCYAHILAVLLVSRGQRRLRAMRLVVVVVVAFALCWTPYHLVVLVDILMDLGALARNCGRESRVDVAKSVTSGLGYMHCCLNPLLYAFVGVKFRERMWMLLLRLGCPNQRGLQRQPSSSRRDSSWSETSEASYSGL
Assay: CXCR3 cAMP agonist assay (cAMP Hunter CHOK1 CXCR3 Gi cell line, forskolin-stimulated, HitHunter cAMP detection)
Format: cell-based
Settings: cAMP Hunter CHOK1 CXCR3 Gi cells, 20 μM forskolin, 30 minutes; read-out: Activity (CXCR3 cAMP agonist assay compound EC50)
Answer each item with its documented EC50.

Cc1ccc(NC(=O)[C@H](CCN2CCC(O)CC2)NC(=O)[C@@H]2Cc3ccccc3CN2C(=O)CCC(=O)c2ccccc2)c(F)c1 [Compound 28-3] : 0.25 to 0.5 µM
Cc1cc(NC(=O)[C@H](CCN)NC(=O)[C@@H]2Cc3ccccc3CN2C(=O)CCC(=O)NCCC(C)C)ccc1Cl [Compound 12-80] : < 0.05 µM
NCC[C@H](NC(=O)[C@@H]1Cc2ccccc2CN1C(=O)CCC(=O)c1ccccc1)C(=O)Nc1cc2c(cc1Cl)CCC2 [Compound 2-73] : < 0.05 µM
[N-]=[N+]=NCC[C@H](NC(=O)[C@@H]1Cc2ccccc2CN1C(=O)CCC(=O)c1ccccc1)C(=O)Nc1ccc(Cl)c(Cl)c1F [Compound 14-22] : 0.25 to 0.5 µM
Cc1cccc(NC(=O)[C@H](CCN)NC(=O)[C@@H]2Cc3ccccc3CN2C(=O)CCC(=O)c2ccccc2)c1F [Compound 2-32] : < 0.05 µM

Count: 7. Required value per item: EC50.
1. CCC(CC)C1CCCCN1C(=O)CCC(=O)N1Cc2ccccc2C[C@H]1C(=O)N[C@@H](CCN)C(=O)Nc1ccc(Cl)c(Cl)c1F (stereo partly shown) [Compound 15-23]
2. Cc1cccc(NC(=O)[C@H](CCN)NC(=O)[C@@H]2Cc3ccccc3CN2C(=O)CCC(=O)c2ccccc2)c1C#N [Compound 14-19]
3. NCCCC[C@H](NC(=O)[C@@H]1Cc2ccccc2CN1C(=O)CCC(=O)c1ccccc1)C(=O)Nc1cccc(F)c1 [Compound 1-8]
4. Cc1cc(NC(=O)[C@H](CCN)NC(=O)[C@@H]2Cc3ccccc3CN2C(=O)CCC(=O)N2CCCC[C@H]2C)ccc1Cl [Compound 12-25]
5. [2H]C([2H])([2H])N1CCN(C(=O)CCC(=O)N2Cc3ccccc3C[C@H]2C(=O)N[C@@H](CCN)C(=O)Nc2ccc(Cl)c(C)c2)CC1 [Compound 12-118]
6. CC1CN(C(=O)CCC(=O)N2Cc3ccccc3C[C@H]2C(=O)N[C@@H](CCN)C(=O)Nc2ccc(Cl)c(Cl)c2F)CC1C (stereo partly shown) [Compound 15-29]
7. O=C(CCC(=O)N1Cc2ccccc2C[C@H]1C(=O)N[C@@H](CCN1CCCC(F)(F)C1)C(=O)Nc1ccc2c(c1)CCC2)c1ccccc1 [Compound 23-8]

1. 0.05 to 0.25 µM
2. 0.05 to 0.25 µM
3. > 0.5 µM
4. < 0.05 µM
5. < 0.05 µM
6. < 0.05 µM
7. 0.25 to 0.5 µM

Reported EC50 for NCC[C@H](NC(=O)[C@@H]1Cc2ccccc2CN1C(=O)CCC(=O)c1ccccc1)C(=O)Nc1cc2c(cc1O)CCC2 [Compound 2-74] : what is it? 0.05 to 0.25 µM

----------
Biological target: CXCR3 (Homo sapiens)
Construct: host or cells: CHO-K1 (cAMP Hunter CHOK1 CXCR3 Gi cell line)
Experiment: CXCR3 cAMP agonist assay (cAMP Hunter CHOK1 CXCR3 Gi cell line, forskolin-stimulated, HitHunter cAMP detection)
Type: cell-based
Details: cAMP Hunter CHOK1 CXCR3 Gi cells, 20 μM forskolin, 30 minutes; read-out: Activity (CXCR3 cAMP agonist assay compound EC50)
pEC50: −log10 of the molar value.
Answer each item with its documented pEC50.

# annotated cases, reported pEC50 shown
NCC[C@H](NC(=O)[C@@H]1Cc2ccccc2CN1C(=O)CCC(=O)N1CCC2(CC2)C1)C(=O)Nc1ccc(Cl)c(Cl)c1F : > 7.30
CC(C)(O)C1CCCCN1C(=O)CCC(=O)N1Cc2ccccc2C[C@H]1C(=O)N[C@@H](CCN)C(=O)Nc1ccc(Cl)c(Cl)c1F (stereo partly drawn) : > 7.30
Cc1cc(NC(=O)[C@H](Cc2c[nH]cn2)NC(=O)[C@@H]2Cc3ccccc3CN2C(=O)CCC(=O)c2ccccc2)ccc1Cl : > 7.30
NCC[C@H](NC(=O)[C@@H]1Cc2ccccc2CN1C(=O)CCC(=O)c1ccccc1)C(=O)Nc1ccc2c(c1)C(=O)CC2 : 6.60 to 7.30
Cc1cc(NC(=O)[C@H](CCN2CCCC2)NC(=O)[C@@H]2Cc3ccccc3CN2C(=O)CCC(=O)c2ccccc2)ccc1Cl : > 7.30

Proceed to the following item.
Reported pEC50 for "Cc1ccc(NC(=O)[C@H](CCCCN)NC(=O)[C@@H]2Cc3ccccc3CN2C(=O)CCC(=O)c2ccccc2)cc1C" : what is it? > 7.30

----------
Answer each item with its documented Cmax.
Assay: Mouse pharmacokinetics after oral gavage, plasma drug concentration by LC-MS/MS (C57BL/6)
Format: in vivo, C57bl/6 mice
Settings: mouse, plasma, C57BL/6, 10 mg/kg, male mice
One number for each entry, in nM.

# annotated cases, reported Cmax shown
Cc1cc(NC(=O)[C@@H](NC(=O)[C@@H]2Cc3ccccc3CN2C(=O)CCC(=O)c2ccccc2)C2CCN(C(C)C)CC2)ccc1Cl [Compound 8-2] : 710
Cc1c(NC(=O)[C@H](CCN)NC(=O)[C@@H]2Cc3ccccc3CN2C(=O)CCC(=O)c2ccccc2)ccc(Cl)c1Cl [Compound 2-15] : 970
Cc1cc(NC(=O)[C@H](CCCCNC(C)C)NC(=O)[C@@H]2Cc3ccccc3CN2C(=O)CCC(=O)c2ccccc2)ccc1Cl [Compound 4-6] : 70
NCCCC[C@H](NC(=O)[C@@H]1Cc2ccccc2CN1C(=O)CCC(=O)c1ccccc1)C(=O)NCC(c1ccccc1)c1ccccc1 [B] : 30
Cc1cc(NC(=O)C2(NC(=O)[C@@H]3Cc4ccccc4CN3C(=O)CCC(=O)c3ccccc3)CCN(C)CC2)ccc1Cl [Compound 6-4] : 810

Proceed to the following item.
Reported Cmax for NCC[C@H](NC(=O)[C@@H]1Cc2ccccc2CN1C(=O)CCC(=O)c1ccccc1)C(=O)Nc1ccc(Cl)c(Cl)c1F [Compound 2-24] : what is it? 1000
